targetUnderTest: recombinant SARS-CoV-2 spike S1 RBD (R319-F541), C-terminal 6-His (SARS-CoV-2, UniProt P0DTC2 319-541)
assayProtocol: flow cytometry, blocking of binding to hACE-2 cells
reportedProperty: percent blocking (%)

>>> testresult("1035740 (antibody, V domains shown) VH: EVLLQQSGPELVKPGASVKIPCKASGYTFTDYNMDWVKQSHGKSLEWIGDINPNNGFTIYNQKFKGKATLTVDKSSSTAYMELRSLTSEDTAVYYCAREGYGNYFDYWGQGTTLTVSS VL: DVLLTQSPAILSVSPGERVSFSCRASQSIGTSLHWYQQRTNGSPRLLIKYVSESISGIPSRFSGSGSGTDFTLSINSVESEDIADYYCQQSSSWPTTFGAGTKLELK")
94.6
>>> testresult("1035755 (antibody, V domains shown) VH: EVQLQQSGAELVRPGALVKLSCKASGFNIKDYYMHWVKQRPEQGLEWIGWIDPENGNSIYDPKFQGKASITADTSSNTAYLQLSSLTSEDTAVYYCATPSATSYFDYWGQGTTLTVSS VL: QIVLTQSPAIMSASPGEKVTISCSASSSVSYMYWYQQKPGSSPKPWIYRTSNLASGVPARFSGSGSGTSYSLTISSMEAEDAATYYCQQYHSYPYMYTFGGGTKLEIK")
94.1
>>> testresult("1035716 (antibody, V domains shown) VH: EVLLQQSGPELVKPGASVKIPCKASGYTFTDYNMDWVKQSHGKSLEWIGDINPNNGGTIYNQKFKGKATLTVDKSSSTAYMELRSLTSEDTAVYYCAREGYGNYFDYWGQGTTLTVSS VL: DILLTQSPAILSVSPGERVSFSCRASQSIGTSIHWYQQRTNGSPRLLIKYASESISGIPSRFSGSGSGTDYTLSINSVESEDIADYYCQQSYSWPTTFGAGTKLELK")
94.6

These entries and their values trace back to patent US20230408517A1.
